Exercise: state measured reverse-splicing fitness for each of the variants provided.
B1: Azoarcus group I ribozyme (parent)
chain: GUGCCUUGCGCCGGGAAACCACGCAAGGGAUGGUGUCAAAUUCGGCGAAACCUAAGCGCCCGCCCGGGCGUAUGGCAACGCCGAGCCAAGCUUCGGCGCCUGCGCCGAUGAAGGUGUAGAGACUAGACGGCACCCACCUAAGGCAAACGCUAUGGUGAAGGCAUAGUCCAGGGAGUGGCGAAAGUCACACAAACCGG

variants of: B1; assay: reverse-splicing fitness (ratio to wild type); higher = more active; in vitro selection; Mg2+ level not given
// keep it numeric: no unit symbol after the value

Fill in: reverse-splicing fitness of A111G A145C C169G U176C is ___
0.0431

Would you kindly repeat that for C82A A120G C150U U176A ?
0.0125

Would you kindly repeat that for A111G A120C A145G C150G C169G ?
0.0082

Would you kindly repeat that for C82U A120U A145U C150G C169A U176G ?
0.0021

Would you kindly repeat that for C82U A111U A120G A145U C150U C169A ?
0.00897

Would you kindly repeat that for C82U A111G A120U A145C C169A U176A ?
0.00176

Would you kindly repeat that for C82U A120C A145G C150A C169U U176A ?
0.0136

Would you kindly repeat that for C82G A120C A145C C150U C169A U176C ?
0.00587

Would you kindly repeat that for C82A A111C A145C C169U U176A ?
0.0142

Would you kindly repeat that for C82A A111U A120U A145C C150U U176G ?
0.00319

Would you kindly repeat that for A120U C150A U176G ?
0.0831

Data provenance: the RNAGym collection of RNA variant scans (doi:10.1093/molbev/msab373)
